Where do the numbers come from? From ChEMBL document CHEMBL1156550.

As a worked illustration, we turn to pKi data collected for Melatonin receptor type 1A (Homo sapiens).
The quantity pKi is defined as the negative base-10 logarithm of the molar concentration.

Here is how some molecules turned out for pKi.
INSERT INTO results (molecule, recorded_endpoint, observed_measurement) VALUES
  ('COc1ccc2c(c1)CC(CO)N2Cc1[nH]c2ccc(OC)cc2c1CCNC(C)=O (racemic)', 'pKi', 7.46),
  ('COc1ccc2c(c1)c(CCNC(C)=O)c1n2CC2Cc3ccccc3N2C1 (centres undefined)', 'pKi', 6.50),
  ('COc1ccc2c(c1)CC1Cn3c(c(CCNC(C)=O)c4cc(OC)ccc43)CN21 (centres undefined)', 'pKi', 5.74);

# input for lookup
Kindly note: Melatonin receptor type 1A (Homo sapiens), COc1ccc2[nH]c(CN3c4ccccc4C[C@H]3CO)c(CCNC(C)=O)c2c1 , pKi value reported: 8.01

----------
species on record: Homo sapiens; experiment: Selectivity ratio of Ki for human melatonin MT1 receptor to Ki for human melatonin MT2 receptor
Recorded Endpoint: Ratio Ki
API note: the answer field is a bare number with no unit suffix.

Form: compound = COc1ccc2[nH]c(CN3c4ccccc4C[C@H]3CO)c(CCNC(C)=O)c2c1 ; Ratio Ki = 1.25

Given item COc1ccc2c(c1)CC(CO)N2Cc1[nH]c2ccc(OC)cc2c1CCNC(C)=O (racemic) , the value recorded as its Ratio Ki is 1.03

The compound listed as COc1ccc2[nH]c(CN3c4ccccc4CC3CO)c(CCNC(C)=O)c2c1 (racemic) shows Ratio Ki equal to 0.48

Lab note: COc1ccc2c(c1)c(CCNC(C)=O)c1n2CC2Cc3ccccc3N2C1 (centres undefined) gave Ratio Ki of 4.89

----------
target: Melatonin receptor type 1B (Homo sapiens); assay: Displacement of 2-[125I]iodomelatonin from human melatonin MT2 receptor expressed in CHO cells; assay type: cell-based
Sequence (P49286 whole entry): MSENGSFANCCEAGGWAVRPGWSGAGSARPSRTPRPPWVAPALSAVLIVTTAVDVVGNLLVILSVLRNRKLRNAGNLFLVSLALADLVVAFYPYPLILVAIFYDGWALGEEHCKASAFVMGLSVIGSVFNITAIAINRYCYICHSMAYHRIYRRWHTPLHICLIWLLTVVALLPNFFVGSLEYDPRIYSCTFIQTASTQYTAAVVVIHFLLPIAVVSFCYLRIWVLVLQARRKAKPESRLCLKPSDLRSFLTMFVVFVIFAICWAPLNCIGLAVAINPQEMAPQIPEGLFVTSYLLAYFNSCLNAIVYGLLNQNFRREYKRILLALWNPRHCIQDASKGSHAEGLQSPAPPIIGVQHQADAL
Recorded Ki, one value per entry.
A number alone suffices; assume nM.

INSERT INTO assay_data (compound, recorded_endpoint, observed_measurement) VALUES
  ('COc1ccc2[nH]c(CN3c4ccccc4C[C@H]3CO)c(CCNC(C)=O)c2c1', 'Ki', 7.8);

// Ki value for COc1ccc2[nH]c(CN3c4ccccc4CC3CO)c(CCNC(C)=O)c2c1 (racemic) : 36.2
